Biological target: G12C-mutant human KRAS (amino acid residues 1-188) (Homo sapiens, UniProt P01116, G12C)
Construct: G12D or G12C-mutant human KRAS (amino acid residues 1-188) with FLAG tag; made in house; host or cells: E. coli
Sequence (P01116 1-188 isoform P01116-2 G12C): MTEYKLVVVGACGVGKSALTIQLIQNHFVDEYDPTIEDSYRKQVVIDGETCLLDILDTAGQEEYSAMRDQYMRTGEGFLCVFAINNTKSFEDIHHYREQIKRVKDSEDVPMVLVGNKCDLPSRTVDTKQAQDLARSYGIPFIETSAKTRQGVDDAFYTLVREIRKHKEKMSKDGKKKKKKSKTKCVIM
Test: KRAS Binding Disruption Assay (AlphaScreen; biotinylated KRpep-2d analogue or RAF1-RBD), G12C
Conditions: geometric mean, read-out: KRAS GMean IC50 (uM) MUTATION: G12C
Examples of compounds with documented IC50 follow.

CN1CCC[C@H]1COc1nc(N2CC3CCC2CN3C(=O)CC2SC(=O)NC2=O)c2ccc(-c3cc(O)cc4ccccc34)c(F)c2n1 (stereo partly shown) [P-0328] :: 0.0001 to 10 µM
CCc1cccc2[nH]cc(-c3ccc4c(N5C[C@H]6CC[C@@H](C5)N6)nc(OCC56CCCN5CCC6)nc4c3F)c12 [P-0699] :: 0.0001 to 10 µM
Clc1cccc2[nH]cc(-c3ccc4c(N5C[C@H]6CC[C@@H](C5)N6)nc(OCC56CCCN5CCC6)nc4c3)c12 [P-0700] :: 10 to 100 µM
Oc1cc(-c2ccc3c(N4C[C@H]5CC[C@@H](C4)N5)nc(CN[C@H]4CCOC4)nc3c2)c2ccccc2c1 [P-0671] :: 10 to 100 µM
OC/C=C/c1nc(N2C[C@H]3CC[C@@H](C2)N3)c2ccc(-c3cc(O)cc4ccccc34)c(F)c2n1 [P-0812] :: 10 to 100 µM
CN1[C@@H]2CC[C@H]1CN(c1nc(OCC34CCCN3CCC4)nc3cc(-c4cc(O)cc5ccccc45)ccc13)C2 [P-0017] :: 10 to 100 µM
CN1CCC[C@H]1COc1nc(N2C[C@H]3CC[C@@H](C2)N3)c2cc(CO)c(-c3cc(O)cc4ccccc34)c(F)c2n1 [P-0056] :: 0.0001 to 10 µM
CC(C)(COc1nc(N2C[C@H]3CC[C@@H](C2)N3)c2ccc(-c3cc(O)cc4ccccc34)c(F)c2n1)NC(=O)OCc1ccccc1 [P-0735] :: 100 to 1000 µM
CN1CCC[C@H]1COc1nc(N2CC3CCCC(C2)N3)c2cc(Cl)c(-c3cc(O)cc4ccccc34)c(F)c2n1 [P-0039] :: 0.0001 to 10 µM
Cc1cc(CN2[C@@H]3CC[C@H]2CN(c2nc(OCC45CCCN4CCC5)nc4cc(-c5cc(O)cc6ccccc56)ccc24)C3)no1 [P-0006] :: 10 to 100 µM

Task: State, in one line, measured IC50 of Oc1cc(-c2ccc3c(N4C[C@H]5CC[C@@H](C4)N5)nc(OCCN4CCC(F)(F)C4)nc3c2F)c2ccccc2c1 [P-0649]
Result: 0.0001 to 10 µM

Task: Annotate the compound O=C(N[C@H]1CCNC1)N1[C@@H]2CC[C@H]1CN(c1nc(OCC34CCCN3CCC4)nc3cc(-c4cc(O)cc5ccccc45)ccc13)C2 [P-0123] with its measured IC50.
Result: 0.0001 to 10 µM

Task: For O=C(OCc1ccccc1)N1CCC[C@H]1COc1nc(N2C[C@H]3CC[C@@H](C2)N3)c2ccc(-c3cc(O)cc4ccccc34)c(F)c2n1 [P-0677] , write its IC50.
Result: 10 to 100 µM

Task: Look up and report measured IC50 for this entry: NC(=O)N1[C@@H]2CC[C@H]1CN(c1nc(OCC34CCCN3CCC4)nc3cc(-c4cc(O)cc5ccccc45)ccc13)C2 [P-0067]
Result: 0.0001 to 10 µM

Task: Supply measured IC50 of Cc1cccc2cccc(-c3ccc4c(N5C[C@H]6CC[C@@H](C5)N6)nc(OCC56CCCN5CCC6)nc4c3F)c12 [P-0005] in your reply.
Result: 0.0001 to 10 µM

Task: Fill in reported IC50 for this entry: NS(=O)(=O)CC(=O)N1[C@@H]2CC[C@H]1CN(c1nc(OCC34CCCN3CCC4)nc3c(F)c(-c4cc(O)cc5ccccc45)ccc13)C2 [P-0352]
Result: 0.0001 to 10 µM

Task: Answer with the recorded IC50 for the compound listed here: Oc1cc(-c2ccc3c(N4C[C@H]5CC[C@@H](C4)N5)nc(CNC4CC(O)C4)nc3c2)c2ccccc2c1 (stereo partly shown) [P-0670]
Result: 100 to 1000 µM

Task: Give reported IC50 value for O=C(Nc1cn[nH]c1)N1[C@@H]2CC[C@H]1CN(c1nc(OCC34CCCN3CCC4)nc3cc(-c4cc(O)cc5ccccc45)ccc13)C2 [P-0126]
Result: 0.0001 to 10 µM
